- Test system: 156681-154-R-J1 tumor spheroid viability
- ASSAY_PROTOCOL: Anticancer human tumor 156681-154-R-J1 patient-derived melanoma cell line growth inhibition
- CONDITION_LABEL: second compound 31.6 µM; first compound 0.316 µM; hits give low values; spheroids with HUVEC and MSC
- Procedure: Multicellular complex tumor spheroid response to DNA repair inhibitors in combination with DNA-damaging drugs This study explores the anticancer activities of DNA-damaging drugs and inhibitors of DNA damage repair, both as single agents and in combinations. […] Twenty-six patient-derived or established malignant cell lines were evaluated representing sarcoma, melanoma, small cell lung cancer (SCLC), non-small cell lung cancer (NSCLC), as well as bladder, ovarian and pancreatic cancers. […]
ENDPOINT: viability, T/C (%)
Numbers only, in %.

Cc1cc(C)c(CNC(=O)c2cc(-c3ccc(CN4CCOCC4)cc3)cc3c2cnn3C2CCCC2)c(=O)[nH]1 + Cn1nnc2c(C(N)=O)ncn2c1=O :: 50.5
CC(C)n1c(=O)n(C)c2cnc3cc(F)c(-c4ccc(OCCCN5CCCCC5)nc4)cc3c21 + Cn1nnc2c(C(N)=O)ncn2c1=O :: 53
CC1COCCN1c1cc(-c2ccnn2C)c2ccnc(-c3ccn[nH]3)c2n1 (stereo unspecified) + Cn1nnc2c(C(N)=O)ncn2c1=O :: 18.6
COc1cc(C)[nH]c(=O)c1CN1CCc2c(Cl)cc(C(OC)C3COC3)c(Cl)c2C1=O (stereo unspecified) + Cn1nnc2c(C(N)=O)ncn2c1=O :: 60.4
COc1ccc([C@@H](O)c2cc(-c3ncnc4cc(N5CCOCC5)ccc34)c(F)cc2Cl)nn1 + Cn1nnc2c(C(N)=O)ncn2c1=O :: 71.8

Next, consider the following compound.
Query block: Report viability, T/C for [2H]c1nc(C)nc([2H])c1-c1cc(NC[C@@H](C)c2cccc3c(C(=O)NC)ccnc23)ncn1 + Cn1nnc2c(C(N)=O)ncn2c1=O
Result block: 48.7

* * *

Could you please report measured viability, T/C for the items listed next?
- Test system: 156681-154-R-J1 tumor spheroid viability
- ASSAY_PROTOCOL: Anticancer human tumor 156681-154-R-J1 cell line growth inhibition
- CONDITION_LABEL: second compound 0.00949 µM; first compound 0.0949 µM; hits give low values; spheroids with HUVEC and MSC
One number for each entry, in %.

For each of the items listed, what is its viability, T/C?
1. O=C(c1cc(Cc2n[nH]c(=O)c3ccccc23)ccc1F)N1CCN(C(=O)C2CC2)CC1 + CC[C@@]1(O)C(=O)OCc2c1cc1n(c2=O)Cc2cc3c(CN(C)C)c(O)ccc3nc2-1
2. Cn1ncnc1[C@H]1c2n[nH]c(=O)c3cc(F)cc(c23)N[C@@H]1c1ccc(F)cc1 + CC[C@@]1(O)C(=O)OCc2c1cc1n(c2=O)Cc2cc3c(CN(C)C)c(O)ccc3nc2-1
3. CNCc1ccc(-c2cc(-c3nc(-c4ccc(S(=O)(=O)C(C)C)cc4)cnc3N)on2)cc1 + CC[C@@]1(O)C(=O)OCc2c1cc1n(c2=O)Cc2cc3c(CN(C)C)c(O)ccc3nc2-1
4. Cc1sc2c(c1C)C(c1ccc(Cl)cc1)=NC(CC(=O)Nc1ccc(O)cc1)c1nnc(C)n1-2 (centres undefined) + CC[C@@]1(O)C(=O)OCc2c1cc1n(c2=O)Cc2cc3c(CN(C)C)c(O)ccc3nc2-1

Result block:
1. 59.1
2. 48.8
3. 73.8
4. 82.6

* * *

- System: 156681-154-R-J1 tumor spheroid viability
- ASSAY_PROTOCOL: Anticancer human tumor 156681-154-R-J1 cell line growth inhibition;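 further: spheroids exposed to compounds for 7 days before readout; percent of vehicle control viability where 100% = DMSO-treated spheroids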
- CONDITION_LABEL: second compound 1 µM; first compound 3 µM; hits give low values; spheroids with HUVEC and MSC
ENDPOINT: viability, T/C (%)
One number for each entry, in %.

Cn1ncnc1[C@H]1c2n[nH]c(=O)c3cc(F)cc(c23)N[C@@H]1c1ccc(F)cc1 + Cn1nnc2c(C(N)=O)ncn2c1=O :: 16.6
CNCc1ccc(-c2cc(-c3nc(-c4ccc(S(=O)(=O)C(C)C)cc4)cnc3N)on2)cc1 + Cn1nnc2c(C(N)=O)ncn2c1=O :: 19

For each of the items listed, what is its viability, T/C?
1. O=C(c1cc(Cc2n[nH]c(=O)c3ccccc23)ccc1F)N1CCN(C(=O)C2CC2)CC1 + Cn1nnc2c(C(N)=O)ncn2c1=O
2. Cc1sc2c(c1C)C(c1ccc(Cl)cc1)=NC(CC(=O)Nc1ccc(O)cc1)c1nnc(C)n1-2 (centres undefined) + Cn1nnc2c(C(N)=O)ncn2c1=O

Result block:
1: 80.2; 2: 57

* * *

- Tested on: 156681-154-R-J1 tumor spheroid viability
- ASSAY_PROTOCOL: Anticancer human tumor 156681-154-R-J1 cell line growth inhibition;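 further: spheroids exposed to compounds for 7 days before readout; percent of vehicle control viability where 100% = DMSO-treated spheroids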
- CONDITION_LABEL: second compound 0.003 µM; first compound 10 µM; hits give low values; spheroids with HUVEC and MSC
- Procedure: Multicellular complex tumor spheroid response to DNA repair inhibitors in combination with DNA-damaging drugs This study explores the anticancer activities of DNA-damaging drugs and inhibitors of DNA damage repair, both as single agents and in combinations. […] Twenty-six patient-derived or established malignant cell lines were evaluated representing sarcoma, melanoma, small cell lung cancer (SCLC), non-small cell lung cancer (NSCLC), as well as bladder, ovarian and pancreatic cancers. […]
Could you please report measured viability, T/C for the items listed next?
Answers are plain numbers, in %.

Field: example entries. Status: answers known.
COc1cc(C)[nH]c(=O)c1CN1CCc2c(Cl)cc(C(OC)C3COC3)c(Cl)c2C1=O (centres undefined) + COc1cc2c(cc1O)CCNC21CSC2c3c(OC(C)=O)c(C)c4c(c3C(COC1=O)N1C(O)C3Cc5cc(C)c(OC)c(O)c5C(C21)N3C)OCO4 :: 0.48
CC(C)n1c(=O)n(C)c2cnc3cc(F)c(-c4ccc(OCCCN5CCCCC5)nc4)cc3c21 + COc1cc2c(cc1O)CCNC21CSC2c3c(OC(C)=O)c(C)c4c(c3C(COC1=O)N1C(O)C3Cc5cc(C)c(OC)c(O)c5C(C21)N3C)OCO4 :: 0.24
COc1ccc([C@@H](O)c2cc(-c3ncnc4cc(N5CCOCC5)ccc34)c(F)cc2Cl)nn1 + COc1cc2c(cc1O)CCNC21CSC2c3c(OC(C)=O)c(C)c4c(c3C(COC1=O)N1C(O)C3Cc5cc(C)c(OC)c(O)c5C(C21)N3C)OCO4 :: 0.28

Next, consider the following compound.
Query block: Report viability, T/C for CC1COCCN1c1cc(-c2ccnn2C)c2ccnc(-c3ccn[nH]3)c2n1 (centres undefined) + CC[C@@]1(O)C(=O)OCc2c1cc1n(c2=O)Cc2cc3c(CN(C)C)c(O)ccc3nc2-1
Result block: 23.9

* * *

- Test system: 156681-154-R-J1 tumor spheroid viability
- ASSAY_PROTOCOL: Anticancer human tumor 156681-154-R-J1 cell line growth inhibition;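 further: spheroids exposed to compounds for 7 days before readout; percent of vehicle control viability where 100% = DMSO-treated spheroids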
- CONDITION_LABEL: second compound 0.003 µM; first compound 10 µM; hits give low values; spheroids with HUVEC and MSC
Could you please report measured viability, T/C for the items listed next?
Answers are plain numbers, in %.

Cc1cc(C)c(CNC(=O)c2cc(-c3ccc(CN4CCOCC4)cc3)cc3c2cnn3C2CCCC2)c(=O)[nH]1 + CC[C@@]1(O)C(=O)OCc2c1cc1n(c2=O)Cc2cc3c(CN(C)C)c(O)ccc3nc2-1 :: 82.9
Cc1cc(C)c(CNC(=O)c2cc(-c3ccc(CN4CCOCC4)cc3)cc3c2cnn3C2CCCC2)c(=O)[nH]1 + COc1cc2c(cc1O)CCNC21CSC2c3c(OC(C)=O)c(C)c4c(c3C(COC1=O)N1C(O)C3Cc5cc(C)c(OC)c(O)c5C(C21)N3C)OCO4 :: 0.28

Query block: Report viability, T/C for COc1ccc([C@@H](O)c2cc(-c3ncnc4cc(N5CCOCC5)ccc34)c(F)cc2Cl)nn1 + CC[C@@]1(O)C(=O)OCc2c1cc1n(c2=O)Cc2cc3c(CN(C)C)c(O)ccc3nc2-1
Result block: 46.6

* * *

Could you please report measured viability, T/C for the items listed next?
- Test system: 156681-154-R-J1 tumor spheroid viability
- ASSAY_PROTOCOL: Anticancer human tumor 156681-154-R-J1 cell line growth inhibition;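 further: spheroids exposed to compounds for 7 days before readout; percent of vehicle control viability where 100% = DMSO-treated spheroids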
- CONDITION_LABEL: second compound 3.16 µM; first compound 0.0949 µM; hits give low values; spheroids with HUVEC and MSC
- Description: Multicellular complex tumor spheroid response to DNA repair inhibitors in combination with DNA-damaging drugs This study explores the anticancer activities of DNA-damaging drugs and inhibitors of DNA damage repair, both as single agents and in combinations. […] Twenty-six patient-derived or established malignant cell lines were evaluated representing sarcoma, melanoma, small cell lung cancer (SCLC), non-small cell lung cancer (NSCLC), as well as bladder, ovarian and pancreatic cancers. […]
Give bare numbers, in %.

Field: example entries. Status: answers known.
Cn1ncnc1[C@H]1c2n[nH]c(=O)c3cc(F)cc(c23)N[C@@H]1c1ccc(F)cc1 + Cn1nnc2c(C(N)=O)ncn2c1=O :: 71
Cc1sc2c(c1C)C(c1ccc(Cl)cc1)=NC(CC(=O)Nc1ccc(O)cc1)c1nnc(C)n1-2 (centres undefined) + Cn1nnc2c(C(N)=O)ncn2c1=O :: 76.4
O=C(c1cc(Cc2n[nH]c(=O)c3ccccc23)ccc1F)N1CCN(C(=O)C2CC2)CC1 + Cn1nnc2c(C(N)=O)ncn2c1=O :: 81.1

Next, consider the following compound.
Query block: # return viability, T/C for CNCc1ccc(-c2cc(-c3nc(-c4ccc(S(=O)(=O)C(C)C)cc4)cnc3N)on2)cc1 + Cn1nnc2c(C(N)=O)ncn2c1=O , test system: 156681-154-R-J1 tumor spheroid viability
Result block: 90
